Details: in methanol, 303.15 K
RESULT_TYPE: solubility (mole fraction)
One number for each entry.

*Q* Which solubility (mole fraction) value is on record for OC[C@@H](O)[C@@H](O[C@H]1O[C@H](CO)[C@@H](O)[C@H](O)[C@H]1O)[C@H](O)[C@@H](O)CO ?
*A* 0.000337

###

Settings: in DMF, 303.15 K
RESULT_TYPE: solubility (mole fraction)
Answers are plain numbers.

*Q* Which solubility (mole fraction) value is on record for OC[C@@H](O)[C@@H](O[C@H]1O[C@H](CO)[C@@H](O)[C@H](O)[C@H]1O)[C@H](O)[C@@H](O)CO ?
*A* 0.00819

###

Conditions: in isopropanol, 323.15 K
RESULT_TYPE: solubility (mole fraction)
One number for each entry.

*Q* Which solubility (mole fraction) value is on record for OC[C@@H](O)[C@@H](O[C@H]1O[C@H](CO)[C@@H](O)[C@H](O)[C@H]1O)[C@H](O)[C@@H](O)CO ?
*A* 5.1e-05

###

Details: in methanol, 323.15 K
RESULT_TYPE: solubility (mole fraction)
Answers are plain numbers.

*Q* Which solubility (mole fraction) value is on record for OC[C@@H](O)[C@@H](O[C@H]1O[C@H](CO)[C@@H](O)[C@H](O)[C@H]1O)[C@H](O)[C@@H](O)CO ?
*A* 0.000706

###

Settings: in DMF, 323.15 K
RESULT_TYPE: solubility (mole fraction)
Answers are plain numbers.

*Q* Which solubility (mole fraction) value is on record for OC[C@@H](O)[C@@H](O[C@H]1O[C@H](CO)[C@@H](O)[C@H](O)[C@H]1O)[C@H](O)[C@@H](O)CO ?
*A* 0.0153

###

Conditions: in methanol, 313.15 K
RESULT_TYPE: solubility (mole fraction)

*Q* Which solubility (mole fraction) value is on record for OC[C@@H](O)[C@@H](O[C@H]1O[C@H](CO)[C@@H](O)[C@H](O)[C@H]1O)[C@H](O)[C@@H](O)CO ?
*A* 0.000453

###

Details: in isopropanol, 308.15 K
RESULT_TYPE: solubility (mole fraction)
Numbers only.

*Q* Which solubility (mole fraction) value is on record for OC[C@@H](O)[C@@H](O[C@H]1O[C@H](CO)[C@@H](O)[C@H](O)[C@H]1O)[C@H](O)[C@@H](O)CO ?
*A* 2.7e-05

###

Settings: in ethanol, 308.15 K
RESULT_TYPE: solubility (mole fraction)

*Q* Which solubility (mole fraction) value is on record for OC[C@@H](O)[C@@H](O[C@H]1O[C@H](CO)[C@@H](O)[C@H](O)[C@H]1O)[C@H](O)[C@@H](O)CO ?
*A* 5.2e-05

###

Conditions: in methanol, 298.15 K
RESULT_TYPE: solubility (mole fraction)

*Q* Which solubility (mole fraction) value is on record for OC[C@@H](O)[C@@H](O[C@H]1O[C@H](CO)[C@@H](O)[C@H](O)[C@H]1O)[C@H](O)[C@@H](O)CO ?
*A* 0.00029

###

Conditions: in water, 308.15 K
RESULT_TYPE: solubility (mole fraction)
Answers are plain numbers.

*Q* Which solubility (mole fraction) value is on record for OC[C@@H](O)[C@@H](O[C@H]1O[C@H](CO)[C@@H](O)[C@H](O)[C@H]1O)[C@H](O)[C@@H](O)CO ?
*A* 0.0786
